- target entity: recombinant human cIAP1-BIR3 protein (Homo sapiens, UniProt Q13490)
- Construct: recombinant human cIAP1-BIR3 protein; purchased Reaction biology APT-11-370
- Sequence (Q13490 253-363 limits assumed): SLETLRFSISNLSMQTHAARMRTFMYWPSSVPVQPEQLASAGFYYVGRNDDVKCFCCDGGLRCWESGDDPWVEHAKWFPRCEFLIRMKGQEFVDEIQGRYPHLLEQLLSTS
- test: Recombinant human c-IAP1-BIR3 biochemical assay (HTRF, peptide displacement)
- measurement parameters: 1.2 nM cIAP1-BIR3, 3 nM AbuRPF-K(5-Fam)-NH2 peptide, read-out: Protein binding IC50 (nM) c-IAP1
metric: IC50 (nM)

{"compound": "C[C@@H]1CN(CC(=O)N2c3cc(Cc4ccc(F)cc4)cnc3OC[C@@H]2C)[C@@H](CN2CCOC[C@H]2C)CN1 [Compound 19A]", "units label": "nM", "value reported": 0.13}
{"compound": "CC1CN(C(=O)CN2C[C@@H](C)NC[C@@H]2CN2CCOC[C@H]2C)c2cc(Cc3ccc(F)cc3)c(Br)nc2O1 (stereo partly shown)", "units label": "nM", "value reported": 8}
{"compound": "C[C@@H]1CN(CC(=O)N2c3cc(Cc4ccc(F)cc4)c(O)nc3OC[C@@H]2C)[C@@H](CN2[C@H](C)COC[C@H]2C)CN1", "units label": "nM", "value reported": 0.18}
{"compound": "C[C@@H]1CN(CC(=O)N2CCOc3nc(Br)c(Cc4ccc(F)cc4)cc32)[C@@H](CN2CCOC[C@H]2C)CN1", "units label": "nM", "value reported": 0.5}
{"compound": "C[C@@H]1CN(CC(=O)N2c3cc(Cc4ccc(F)cc4)cnc3OC[C@@H]2Cc2ccccc2)[C@@H](CN2CCOC[C@H]2C)CN1", "units label": "nM", "value reported": 0.24}
{"compound": "C[C@@H]1CN(CC(=O)N2c3cc(Cc4ccc(F)cc4)c(OCCO)nc3OC[C@@H]2C)[C@@H](CN2[C@H](C)COC[C@H]2C)CN1", "units label": "nM", "value reported": 0.23}

1 = C[C@@H]1CN(CC(=O)N2CCOc3nc(C(F)(F)F)c(Cc4ccc(F)cc4)cc32)[C@@H](CN2CCOC[C@H]2C)CN1
2 = C[C@@H]1CN(CC(=O)N2c3cc(Cc4ccc(F)cc4)c(C(=O)N[C@H]4CCOC4)nc3OC[C@@H]2C)[C@@H](CN2[C@H](C)COC[C@H]2C)CN1
3 = C[C@@H]1CN(CC(=O)N2c3cc(Cc4ccc(F)cc4)c(C(N)=O)nc3OC[C@@H]2C)[C@@H](CN2CCOCC2(C)C)CN1
Exercise: Sort entries by IC50 from minimum to maximum value. Record the ranking as a list of labels in the requested order.
Solution: 2, 3, 1
(2: 0.19 nM, 3: 0.43 nM, 1: 1.3 nM)

a = CC1CN(C(=O)CN2C[C@@H](C)NC[C@@H]2CN2CCOC[C@H]2C)c2cc(Cc3ccc(F)cc3)cnc2O1 (stereo partly shown)
b = C[C@@H]1CN(CC(=O)N2c3cc(Cc4ccc(F)cc4)c(C(=O)NC[C@@H]4CCOC4)nc3OC[C@@H]2C)[C@@H](CN2[C@H](C)COC[C@H]2C)CN1
c = C[C@@H]1CN(CC(=O)N2c3cc(Cc4ccc(F)cc4)cnc3OC[C@@H]2COc2ccccc2)[C@@H](CN2[C@H](C)COC[C@H]2C)CN1
Exercise: Descending sort on IC50 required. Record the ranking as a list of labels in the requested order.
Solution: a, b, c
(a: 14 nM, b: 0.19 nM, c: 0.09 nM)

---

- target entity: recombinant human cIAP1-BIR3 protein (Homo sapiens, UniProt Q13490)
- Construct: recombinant human cIAP1-BIR3 protein; purchased Reaction biology APT-11-370
- test: Recombinant human c-IAP1-BIR3 biochemical assay (HTRF, peptide displacement)
- measurement parameters: 1.2 nM cIAP1-BIR3, 3 nM AbuRPF-K(5-Fam)-NH2 peptide, read-out: Protein binding IC50 (nM) c-IAP1
- Protocol: I. Recombinant human c-IAP1-BIR3 biochemical assay Compounds disclosed herein were tested for blocking of recombinant human cIAP1-BIR3 protein (Cat: APT-11-370, Reaction biology) with its peptide in an assay based on Homogeneous Time Resolved Fluorescence. […] The HTRF signals (ex337 nm, em520 nm/490 nm) were read on BMG PHERAstar FS instrument. […]
Counter-ions that a name gives are not always drawn.
metric: IC50 (nM)

{"compound": "CCOC[C@H]1COc2ncc(Cc3ccc(F)cc3)cc2N1C(=O)CN1C[C@@H](C)NC[C@@H]1CN1CCOC[C@H]1C [Compound 37]", "target entity": "recombinant human cIAP1-BIR3 protein (Homo sapiens, UniProt Q13490)", "IC50 [nM]": 0.29}
{"compound": "C[C@@H]1CN(CC(=O)N2c3cc(Cc4ccc(F)cc4)c(C(=O)NC[C@H]4CCOC4)nc3OC[C@@H]2C)[C@@H](CN2[C@H](C)COC[C@H]2C)CN1 [Compound 96]", "target entity": "recombinant human cIAP1-BIR3 protein (Homo sapiens, UniProt Q13490)", "IC50 [nM]": 0.21}
{"compound": "C[C@@H]1CN(CC(=O)N2c3cc(Cc4ccc(F)cc4)c(C(N)=O)nc3OC[C@@H]2C)[C@@H](CN2[C@H](C)COC[C@H]2C)CN1 [Compound 32]", "target entity": "recombinant human cIAP1-BIR3 protein (Homo sapiens, UniProt Q13490)", "IC50 [nM]": 0.25}

P = C[C@@H]1CN(CC(=O)N2c3cc(Cc4ccc(F)cc4)cnc3OCC23CC3)[C@@H](CN2CCOC[C@H]2C)CN1 [Compound 20, hydrochloride]
Q = C[C@@H]1CN(CC(=O)N2c3cc(Cc4ccc(F)cc4)cnc3OC[C@@H]2C2CCCCC2)[C@@H](CN2[C@H](C)COC[C@H]2C)CN1 [Compound 43]
R = C[C@@H]1CN(CC(=O)N2CCOc3ncc(Cc4ccc(F)cc4)cc32)[C@@H](CN2C[C@@H]3C[C@H]2CO3)CN1 [Compound 13]
S = C[C@@H]1CN(CC(=O)N2c3cc(Cc4ccc(F)cc4)c(CN4CCOCC4)nc3OC[C@@H]2C)[C@@H](CN2[C@H](C)COC[C@H]2C)CN1 [Compound 92]
Exercise: Descending sort on IC50 required. Record the ranking as a list of labels in the requested order.
Solution: P, R, S, Q

---

- target entity: recombinant human cIAP2-BIR3 protein (Homo sapiens, UniProt Q13489)
- Construct: recombinant human cIAP2-BIR3 protein; purchased Reaction biology APT-11-372
- Sequence (Q13489 238-349 limits assumed): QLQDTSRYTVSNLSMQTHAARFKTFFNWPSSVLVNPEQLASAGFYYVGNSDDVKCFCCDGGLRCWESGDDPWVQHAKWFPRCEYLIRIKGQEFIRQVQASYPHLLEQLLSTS
- test: Recombinant human c-IAP2-BIR3 biochemical assay (HTRF, peptide displacement)
- measurement parameters: 3.7 nM cIAP2-BIR3, 3.7 nM AbuRPF-K(5-Fam)-NH2 peptide, read-out: Protein binding IC50 (nM) c-IAP2
metric: IC50 (nM)

Below are worked cases with known answers.
{"molecule": "C[C@@H]1CN(CC(=O)N2c3cc(Cc4ccc(F)cc4)c(C(=O)NC[C@H]4CCCO4)nc3OC[C@@H]2C)[C@@H](CN2[C@H](C)COC[C@H]2C)CN1", "IC50 / nM": 0.28}
{"molecule": "C[C@@H]1CN(CC(=O)N2c3cc(Cc4ccc(F)cc4)c(C(=O)NCCO)nc3OC[C@@H]2C)[C@@H](CN2[C@H](C)COC[C@H]2C)CN1", "IC50 / nM": 0.29}

1 = C[C@@H]1CN(CC(=O)N2c3cc(Cc4ccc(F)cc4)c(C(=O)NC[C@H]4CCOC4)nc3OC[C@@H]2C)[C@@H](CN2[C@H](C)COC[C@H]2C)CN1
2 = C[C@@H]1CN(CC(=O)N2c3cc(Cc4ccc(F)cc4)cnc3OC[C@H]2C)[C@@H](CN2CCOC[C@H]2C)CN1 [Compound 19B]
3 = C[C@@H]1CN(CC(=O)N2c3cc(Cc4ccc(F)cc4)cnc3OC[C@@H]2C2CC2)[C@@H](CN2[C@H](C)COC[C@H]2C)CN1
Exercise: Descending sort on IC50 required. Record the ranking as a list of labels in the requested order.
Solution: 2, 3, 1
(2: 27 nM, 3: 0.5 nM, 1: 0.23 nM)

---

- target entity: recombinant human cIAP1-BIR3 protein (Homo sapiens)
- Construct: recombinant human cIAP1-BIR3 protein; purchased Reaction biology APT-11-370
- test: Recombinant human c-IAP1-BIR3 biochemical assay (HTRF, peptide displacement)
- measurement parameters: 1.2 nM cIAP1-BIR3, 3 nM AbuRPF-K(5-Fam)-NH2 peptide, read-out: Protein binding IC50 (nM) c-IAP1
Where a name gives a salt, the structure may show the parent alone.
metric: IC50 (nM)

{"molecule": "C[C@@H]1CN(CC(=O)N2c3cc(Cc4ccc(F)cc4)c(CO)nc3OC[C@@H]2C)[C@@H](CN2CCOCC23CCC3)CN1", "target entity": "recombinant human cIAP1-BIR3 protein (Homo sapiens)", "IC50 / nM": 1}
{"molecule": "C[C@@H]1CN(CC(=O)N2c3cc(Cc4ccc(F)cc4)c(N4CCOCC4)nc3OC[C@@H]2C)[C@@H](CN2[C@H](C)COC[C@H]2C)CN1", "target entity": "recombinant human cIAP1-BIR3 protein (Homo sapiens)", "IC50 / nM": 0.33}
{"molecule": "C[C@@H]1CN(CC(=O)N2c3cc(Cc4ccc(F)cc4)c(NC4CC4)nc3OC[C@@H]2C)[C@@H](CN2[C@H](C)COC[C@H]2C)CN1", "target entity": "recombinant human cIAP1-BIR3 protein (Homo sapiens)", "IC50 / nM": 0.36}

A = C[C@@H]1CN(CC(=O)N2c3cc(Cc4ccc(F)cc4)c(CO)nc3OC[C@@H]2C)[C@@H](CN2CCOC[C@H]2C2CC2)CN1 [Example 84A]
B = C[C@@H]1CN(CC(=O)N2CCOc3ncc(Cc4ccc(F)cc4)cc32)[C@@H](CN2CCOC[C@H]2C)CN1 [Compound 2, formate]
Exercise: Looking at recorded values for IC50, does A or B come in lower? Identify your selection by its label.
Solution: A
